# Experimental protocol: gradient 5% acetonitrile 3 min, to 50% in 2 min, to 85% in 15 min, held 3 min, 100 µL/min
# Test context: column: Zorbax Extend-C18 2.1 x 50 mm; eluents: water / acetonitrile, 0.1% formic acid
Outcome measure: RP-LC retention time

1. CC(=O)c1cccc(NC(=O)Cn2c(-c3ccccc3)nc(C)cc2=O)c1; 912 s
2. COC(=O)C1=C(C)NC(C)=C(C(=O)OC(C)(C)CN(C)CCC(c2ccccc2)c2ccccc2)C1c1cccc([N+](=O)[O-])c1 (stereo not drawn); 1010 s
3. Cc1ccc(CNC(=O)N2CCC3(CC2)NC(=O)c2ccc(F)cc2N3C)cc1; 761 s
4. O=C(O)c1cnc(N2CCCCC2)nc1-c1ccncc1; 636 s
5. COC(=O)C1=CN(c2ccc(C)c(F)c2)c2ccc(F)cc2S1(=O)=O; 920 s
6. O=C(Nc1ccc2c(c1)OCCO2)C1CCCN(c2ccnc(-c3ccc(F)cc3)n2)C1 (stereo not drawn); 691 s
7. Cc1ccc2[nH]cc(CCNC(=O)c3cccc(NC(=O)c4nnc(C5CC5)s4)c3)c2c1; 932 s
8. CCn1cc(S(=O)(=O)N2C[C@H]3CN(S(=O)(=O)c4cccc(F)c4)C[C@@H](C2)O3)cn1; 815 s

----------
# Experimental protocol: gradient 5% acetonitrile 3 min, to 50% in 2 min, to 85% in 15 min, held 3 min, 100 µL/min
# Test context: column: Zorbax Extend-C18 2.1 x 50 mm; eluents: water / acetonitrile, 0.1% formic acid
Outcome measure: RP-LC retention time (s)

1) O=C(Nc1nc(-c2ccc(F)cc2F)cs1)c1ccccc1F; 1130
2) O=C(Cn1c(-c2nnco2)cc2ccccc21)NCC1CCCO1 (stereo not given); 668
3) Cc1ccc(C(C)NC(=O)CN2C(=O)NC3(CCCCC3)C2=O)cc1 (stereo not given); 804
4) O=C(Nc1ccc(C(F)(F)F)cc1)C1CCN(S(=O)(=O)c2ccc3[nH]c(=O)sc3c2)CC1; 924
5) CSc1ncc(C(=O)N2CCN(c3ccccn3)CC2)c(-c2ccccc2)n1; 837
6) O=C(Cn1ccc2sccc2c1=O)Nc1cccc(F)c1; 746
7) Cn1ncc2c(N3CCN(c4ccccc4F)CC3)ncnc21; 858
8) COCC(C)NC(=O)C(=O)NCc1cccs1 (stereo not given); 658
9) O=C(NCc1ccccc1)N1CCN(Cc2nc3cc(Cl)ccc3o2)CC1; 717
10) Cc1cc(C)cc(Oc2nccn3c(=O)n(CC(=O)Nc4cccc(Cl)c4C)nc23)c1; 992

----------
# Experimental protocol: gradient 5% acetonitrile 3 min, to 50% in 2 min, to 85% in 15 min, held 3 min, 100 µL/min
# Test context: column: Zorbax Extend-C18 2.1 x 50 mm; eluents: water / acetonitrile, 0.1% formic acid
Decision: RP-LC retention time >= 700 s yields Y, all other cases yield N.

1) O=C(C1COc2ccccc2O1)N1CCCC(COCc2ccccc2)C1 (stereo unspecified); Y
2) Cc1noc(C)c1-c1ccc(S(=O)(=O)NCc2ccco2)cc1; Y
3) Cc1ccn2cc(C(=O)N3CCN(c4ccc(F)cc4)CC3)nc2c1; N
4) Cc1cc(OCc2nc(C)c(C(=O)Nc3nc(-c4ccccc4)cs3)s2)ccc1Cl; Y
5) CCn1cc(S(=O)(=O)Nc2ccccc2F)c2cccnc21; Y
6) O=C(COc1ccccc1F)NCC1(c2cccs2)CCOCC1; Y
7) Cc1nc(CC(=O)Nc2nc(-c3ccc(Br)cc3)cs2)cs1; Y
8) CC(C)c1cc(-c2nnc3sc(COc4ccc(Cl)cc4)nn23)n[nH]1; Y
9) CC(CCNC(=O)C1CCN(c2nc3cccnc3s2)CC1)N1CCCC1 (stereo unspecified); N
10) Cc1cc(C)cc(NC(=O)Cn2nc3c(N(C)C4CCCCC4)nccn3c2=O)c1; Y
11) O=C(NCCN1CCCC1)c1ccc2nc(-c3ccccc3)cn2c1; N
12) CCOC(=O)c1cc(S(=O)(=O)N2CCCC2C(=O)Nc2ccc(C(C)C)cc2)cn1C (stereo unspecified); Y
13) CCc1ccc(-c2nc(-c3ccc4c(c3)N(CC)C(=O)CO4)no2)cc1; Y
14) COCc1nc(C2CCN(C(=O)c3ccco3)C2)no1 (stereo unspecified); N
15) CC(=O)Nc1ccc(-c2nc(-c3cccc(-c4ccnn4C)c3)no2)cc1; Y
16) Cc1ccc(C)c(C(=O)N2CCN(c3cc(C)nc(N4CCOCC4)n3)CC2)c1; N
17) CC(C)NC(=O)c1ccnn1C; N
18) CN(CC(=O)Nc1ccc2c(c1)OCO2)c1nc2c(F)cccc2s1; Y
19) O=c1[nH]c2ccc(S(=O)(=O)Nc3cccc(C(F)(F)F)c3)cc2[nH]1; N
20) Clc1cc(Cl)cc(-c2ccc(CNCc3ccco3)o2)c1; Y

----------
Reported values of RP-LC retention time for individual entries
# Experimental protocol: gradient 5% acetonitrile 3 min, to 50% in 2 min, to 85% in 15 min, held 3 min, 100 µL/min
# Test context: column: Zorbax Extend-C18 2.1 x 50 mm; eluents: water / acetonitrile, 0.1% formic acid
Outcome measure: RP-LC retention time (s)

1) COc1cc(-c2nnc(-c3cccc(S(=O)(=O)N(C)C)c3)o2)cc(OC)c1OC; 873
2) O=c1ccn(-c2ccc(Cl)cc2)nc1-c1nc(-c2cccc(F)c2)no1; 954
3) COc1ccc(C)cc1NC(=O)N1CC(c2nc(C(C)C)nn2C)C1; 710
4) Cc1cc2[nH]c(C(=O)Nc3ccc(Cl)cc3F)c(CN3CCOCC3)c2s1; 759
5) CCOc1ccc(-c2noc(Cn3c(=O)n(C(C)C)c(=O)c4ccccc43)n2)cc1OC; 1080
6) O=C(C1CCCC1)N1CCN(c2cc(-c3ccc(Cl)cc3)[nH]n2)CC1; 877
7) CCN1C(=O)c2cccnc2Sc2cc(CNC(=O)Cc3ccsc3)ccc21; 728
8) COc1ccc(OCc2nc(-c3ccc4c(c3)nc(C)c(=O)n4C3CCCC3)no2)cc1; 1170
9) O=C(NCCc1cccs1)C1CCN(c2cc(N3CCOCC3)ncn2)CC1; 607
10) CCOC(=O)N1CCC(Nc2c(C(=O)OC)c(=O)[nH]c3c(Cl)cccc23)CC1; 731
11) O=C(NC1CCCCCC1)C1CCCN(c2nccnc2Sc2ccccc2)C1 (stereo not given); 1170
12) Cc1ccc(NC(=O)C2CCCN(c3nc4ccccc4nc3C(F)(F)F)C2)c(C)c1 (stereo not given); 1230
13) CCn1cc(S(=O)(=O)N2CCC(Cc3nc(-c4cccnc4)n[nH]3)C2)cn1 (stereo not given); 592
14) CSc1ccc(-c2nc3cccc(C)n3c2Nc2ccc3c(c2)OCCO3)cc1; 719
15) Cc1cccc(S(=O)(=O)N2CCC(C)(C(=O)NCc3ccccc3)CC2)c1; 935
16) c1ccc(C(NCc2cccnc2)(c2ccccc2)c2ccccc2)cc1; 831
17) CNC(=O)c1n[nH]c2c1CCCCCC2; 685
18) CC1CCC2(CC1)NC(=O)N(CC(=O)Nc1ccccc1Cl)C2=O (stereo not given); 858
19) COc1ccc(N2CCN(C(=O)C34CCC(C)(C(=O)C3)C4(C)C)CC2)cc1 (stereo not given); 784
20) COC(=O)CNC(=O)C1COc2ccc(NC(=O)C(C)C)cc2C1 (stereo not given); 658

----------
Reported values of RP-LC retention time for individual entries
# Experimental protocol: gradient 5% acetonitrile 3 min, to 50% in 2 min, to 85% in 15 min, held 3 min, 100 µL/min
# Test context: column: Zorbax Extend-C18 2.1 x 50 mm; eluents: water / acetonitrile, 0.1% formic acid
Outcome measure: RP-LC retention time (s)

1. COc1ccc(C(=O)Nc2ccc3c(c2)Sc2ncccc2C(=O)N3C(C)C)cc1F; 894
2. O=C(COc1ccc(Cl)cc1)Nc1c(-c2ccc(F)cc2)nc2ccccn12; 744
3. CCCn1cc(-c2ccncc2)cc1C(=O)NC1CCN(Cc2ccccc2)CC1; 561
4. CCCCC(=O)Nc1ccc2nc(N3CCN(c4cccc(Cl)c4)CC3)cc(C(=O)O)c2c1; 758
5. CCCCNC(=O)c1cn(-c2ccc(NC(=O)CC)cn2)cn1; 678
6. COc1ccccc1Oc1c(NS(=O)(=O)c2ccc(C)cn2)nc(-c2ccncc2)nc1OC; 870
7. COc1ccc(N2CCN(C(=O)c3csc(-c4ccc(N5CCCC5)nc4)n3)CC2)cc1; 651
8. CCc1nnc(NC(=O)c2ccoc2COc2ccc(C)cc2)s1; 803
9. CCCn1c(C)cnc1C1CCN(S(=O)(=O)c2ccc3c(c2)CCC3)C1 (centres undefined); 564

----------
# Experimental protocol: gradient 5% acetonitrile 3 min, to 50% in 2 min, to 85% in 15 min, held 3 min, 100 µL/min
# Test context: column: Zorbax Extend-C18 2.1 x 50 mm; eluents: water / acetonitrile, 0.1% formic acid
Reported values of RP-LC retention time for individual entries
Outcome measure: RP-LC retention time (s)

1. COc1ccc(NC(=O)C2CCN(S(=O)(=O)c3ccc4c(c3)NC(=O)C(C)O4)CC2)cc1Cl (stereo not given); 853
2. COc1cccc(C(=O)NC2CCN(c3ccc(C)c(C)c3)C2=O)c1 (stereo not given); 869
3. COc1ccc(Cc2nc3nccc(-c4cc(OC)c(OC)c(OC)c4)n3n2)cc1; 860
4. Cc1ccc(-c2nnc(N3CCC(C(=O)NCCC(C)C)CC3)o2)cc1; 881
5. CCCNC(=O)CN1CCN(C(=O)c2sc3ncccc3c2-n2cccc2)CC1; 620
6. CNC(=O)c1cc(COc2ccc(NC(=O)c3ccc(Br)cc3)cc2)on1; 830
7. O=C(C1CCCC1)N1CC(c2nc(-c3ccccc3)no2)C2(CCOCC2)C1 (stereo not given); 923
8. Cc1ccc(Cl)cc1N1C(=O)CN(S(C)(=O)=O)CC1(C)C(=O)NC1CCCC1 (stereo not given); 838
9. Cc1ccccc1CNC1=NCCNC12CCN(S(=O)(=O)c1ccc3c(c1)CCCC3)CC2; 851
10. COC(=O)c1c(NC(=O)C2COc3ccccc3O2)sc2c1CCN(C(=O)OC)C2 (stereo not given); 963
11. Cc1nnc(-c2cc(C)n(CC(=O)Nc3ccc(Br)cc3)c2C)o1; 836
12. CCOc1cccc2sc(N(Cc3ccccn3)C(=O)c3nn(C)cc3C)nc12; 763
13. Cc1ccc(F)c(NC(=O)C2CC(=O)N(c3ccc4oc(C)nc4c3)C2)c1 (stereo not given); 753
14. COC(=O)CNC(=O)C1CN(C(=O)c2ccccc2)CC12CCCCC2 (stereo not given); 731
15. O=c1c2scc(-c3ccc(F)cc3)c2ncn1CCOc1ccccc1; 1070
16. COc1cccc(NC2=NS(=O)(=O)c3ccccc32)c1; 732
17. O=C1NCCCCCN(C(=O)c2cccs2)[C@H]2CCC[C@@H]12; 698
18. Cc1noc(/C=C/c2ccc(S(=O)(=O)NCC3CCCO3)s2)c1NC(=O)C1CC1 (stereo not given); 677
19. CCN(CC)CCNc1ncnc2onc(-c3ccc(F)cc3)c12; 625
20. CCc1nc2ccccc2c(=O)n1Cc1noc(-c2ccc(OC)cc2OC)n1; 918
